// reported Ki for each item listed
# tgt: UniProt:P25099
# Sequence (P25099 whole entry): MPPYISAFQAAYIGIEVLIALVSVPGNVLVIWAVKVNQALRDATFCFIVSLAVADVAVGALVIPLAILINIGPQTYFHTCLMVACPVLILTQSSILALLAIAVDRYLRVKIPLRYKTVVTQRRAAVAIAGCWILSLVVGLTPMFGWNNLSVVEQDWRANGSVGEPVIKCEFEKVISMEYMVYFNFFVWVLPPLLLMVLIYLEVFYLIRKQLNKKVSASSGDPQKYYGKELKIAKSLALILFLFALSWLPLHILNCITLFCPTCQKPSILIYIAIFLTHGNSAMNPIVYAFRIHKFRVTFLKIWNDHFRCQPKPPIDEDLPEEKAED
# assayComment: Displacement of [3H]N6-PIA (Kd, 1 nM) binding from Adenosine A1 receptor in whole rat brain membranes
Just the number in nM, nothing appended.

Worked examples, 2 molecules total:
>>> reading("C[C@@H](Nc1nc(N)c2cnn(-c3ccccc3)c2n1)C(N)=O")
486
>>> reading("C[C@H](Nc1nc(N)c2cnn(-c3ccccc3)c2n1)C(N)=O")
49.1

In: Param item = CC(Nc1nc(N)c2cnn(-c3ccccc3)c2n1)C(N)=O (racemic) ; retrieve measured Ki.
Out: 84
